Target: human 5-HT1A receptor (Homo sapiens, UniProt P08908)
Sequence (P08908 whole entry): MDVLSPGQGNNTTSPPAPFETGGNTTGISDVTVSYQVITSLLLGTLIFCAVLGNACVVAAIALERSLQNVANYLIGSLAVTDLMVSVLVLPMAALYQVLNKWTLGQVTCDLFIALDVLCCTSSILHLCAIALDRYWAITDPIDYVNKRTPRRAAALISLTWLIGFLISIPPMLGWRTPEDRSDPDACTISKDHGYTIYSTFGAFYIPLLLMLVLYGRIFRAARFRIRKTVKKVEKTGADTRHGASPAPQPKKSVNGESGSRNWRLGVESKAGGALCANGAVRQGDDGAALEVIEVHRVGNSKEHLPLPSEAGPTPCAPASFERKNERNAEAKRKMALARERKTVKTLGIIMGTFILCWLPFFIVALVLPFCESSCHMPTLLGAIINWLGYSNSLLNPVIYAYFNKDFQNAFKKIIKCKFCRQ
Test: Antagonism of 8-OH-DPAT inhibition of forskolin-stimulated cyclic-AMP turnover in transfected CHO cells
Details: CHO cells with human 5-HT1A receptor, read-out: cAMP IC50
Assign pIC50 to each entry below.
When answering, recall that pIC50 equals minus log10 of the concentration in mol/L, and write that number alone.

Item under review: C[C@H](CN(C(=O)C1(C)C2CCC1CC2)c1ccccn1)N1CCN(c2cccc3[nH]ccc23)CC1 (stereo partly shown) . Reported pIC50?
8.17

Item under review: C[C@H](CN(C(=O)C1C2CCC1CC2)c1ccccn1)N1CCN(c2cccc3[nH]ccc23)CC1 (stereo partly shown) . Reported pIC50?
7.13

Item under review: C[C@H](CN(C(=O)[C@H]1CC2CCC1CC2)c1ccccn1)N1CCN(c2cccc3[nH]ccc23)CC1 . Reported pIC50?
8.39

Item under review: C[C@H](CN(C(=O)[C@@H]1CC2CCC1CC2)c1ccccn1)N1CCN(c2cccc3[nH]ccc23)CC1 . Reported pIC50?
8.66
